# Tested on: Calf thymus DNA
# EXPERIMENT DESCRIPTION: Binding affinity to calf thymus DNA assessed as 7-MeG adduct formation at 25 uM after 24 hrs by RP-HPLC analysis
# Assay type: nucleic-acid assay
# PROTOCOL CONDITIONS: Bos taurus
Below: a set of entries, each annotated with reported Activity.
METRIC NAME: Activity (µmol)

[
  {
    "GIVEN SMILES": "CCCNC(=O)c1cc(NC(=O)c2cc(NC(=O)CCS(=O)(=O)OC)cn2C)cn1C",
    "OBSERVED VALUE": 185
  },
  {
    "GIVEN SMILES": "COS(=O)(=O)CCC(=O)Nc1cc(C(=O)Nc2cc(C(=O)NCCC(=O)NCCCCCC[C@@H]3Cc4cc(O)ccc4[C@H]4CC[C@]5(C)[C@@H](O)CC[C@H]5[C@H]34)n(C)c2)n(C)c1",
    "OBSERVED VALUE": 93
  },
  {
    "GIVEN SMILES": "COS(=O)(=O)CCC(=O)Nc1cc(C(=O)Nc2cc(C(=O)NCC(=O)NCCCCCC[C@@H]3Cc4cc(O)ccc4[C@H]4CC[C@]5(C)[C@@H](O)CC[C@H]5[C@H]34)n(C)c2)n(C)c1",
    "OBSERVED VALUE": 194
  },
  {
    "GIVEN SMILES": "COS(=O)(=O)CCC(=O)Nc1cc(C(=O)Nc2cc(C(=O)NCCCC(=O)NCCCCCC[C@@H]3Cc4cc(O)ccc4[C@H]4CC[C@]5(C)[C@@H](O)CC[C@H]5[C@H]34)n(C)c2)n(C)c1",
    "OBSERVED VALUE": 147
  }
]
